B1: TPR t1 (parent)
chain: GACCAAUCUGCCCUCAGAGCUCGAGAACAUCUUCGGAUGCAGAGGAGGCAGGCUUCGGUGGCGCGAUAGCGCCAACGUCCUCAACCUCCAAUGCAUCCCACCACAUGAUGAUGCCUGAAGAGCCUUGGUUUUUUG

Variants of: B1
Procedure summary: polymerase ribozyme fitness, log enrichment relative to wild type (log ratio); higher = more active; in vitro selection for triplet polymerase activity
Criterion: polymerase ribozyme fitness (log ratio) meeting or surpassing -1. Met: 1.0. Not met: 0.0.

Change: A5G A95U A121C G128A U130C
Assigned category: 1.0
//
Change: A6U C11U C124G
Assigned category: 1.0
//
Change: C82A C94U C98U U106C
Assigned category: 0.0
//
Change: A50C C56U
Assigned category: 1.0
//
Change: G93C G122A
Assigned category: 1.0
//
Change: A66G U87A C99U A118U
Assigned category: 0.0
//
Change: C31A G107C
Assigned category: 0.0
//
Change: G36U U106G G120A
Assigned category: 0.0
//
Change: C31G A50C U109G U131A
Assigned category: 0.0
//
Change: C53G C124U U129A
Assigned category: 1.0
//
Change: C72U G93U
Assigned category: 0.0
//
Change: C20U U112G
Assigned category: 0.0
//
Change: G58A A83U U106A
Assigned category: 0.0
//
Change: A27U C73A U129C
Assigned category: 0.0
//
Change: G44U G71U
Assigned category: 0.0
//
Change: U54A U81G G120A
Assigned category: 0.0
//
Change: C94U A121G
Assigned category: 1.0
//
Change: C34U C56A C114U
Assigned category: 0.0
//
Change: C34A A100G
Assigned category: 0.0
//
Change: C73A A111C
Assigned category: 1.0
//
Change: C40U U54A
Assigned category: 1.0
//
Change: G19A G61A U125G
Assigned category: 0.0
